molecular target: Albumin (Bos taurus) (UniProt P02769); test: bovine serum albumin binders on microarray, profiling panel, artefact control for SMM control protein annotation, biochemical, small-molecule microarray, Alexa647 label, 635/667 nm fluorescence (AID 1118); conditions: BSA-A647 binding, fluorescence 635 nm, higher = more signal;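 also: score merges 667 nm emission intensity and signal-to-noise per printed compound spot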
Sequence (P02769 whole entry, looked up): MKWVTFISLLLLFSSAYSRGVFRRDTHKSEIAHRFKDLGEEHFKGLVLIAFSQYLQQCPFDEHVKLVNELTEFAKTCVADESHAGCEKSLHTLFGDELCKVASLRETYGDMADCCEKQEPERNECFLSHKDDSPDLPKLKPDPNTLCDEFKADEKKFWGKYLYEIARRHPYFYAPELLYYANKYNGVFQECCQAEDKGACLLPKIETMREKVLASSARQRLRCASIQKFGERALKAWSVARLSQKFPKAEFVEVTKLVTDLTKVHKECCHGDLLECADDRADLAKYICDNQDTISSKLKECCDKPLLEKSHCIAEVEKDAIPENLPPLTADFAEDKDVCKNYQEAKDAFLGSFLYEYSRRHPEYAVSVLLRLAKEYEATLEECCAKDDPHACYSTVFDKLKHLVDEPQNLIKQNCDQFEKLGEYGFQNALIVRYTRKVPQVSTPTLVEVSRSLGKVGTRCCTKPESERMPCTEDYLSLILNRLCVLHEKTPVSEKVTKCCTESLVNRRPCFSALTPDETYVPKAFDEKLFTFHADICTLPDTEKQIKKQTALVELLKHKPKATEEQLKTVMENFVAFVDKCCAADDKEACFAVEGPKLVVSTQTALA
Can you tell me composite z-score for the items I'm about to list?

Use these answered entries as a reference point.
1) CCOC(=O)[C@H](Cc1ccccc1)NC(=O)CCC1CC(OC(=O)NCCc2ccc(F)cc2)CC2(CCCC(COC(=O)NCCc3ccccc3OC)O2)O1 (stereo not given in full)	0.667
2) CC(C)=NO[C@H](C)c1cn([C@H](CO)Cc2ccccc2)nn1	0.364
3) CCc1cc2c(nc1CC)CCN(CCC(C)=NO[C@H](C)c1cn([C@@H]3COC[C@H]3O)nn1)C2	-0.559
4) O=C(NN=C1C[C@@H](O)[C@@H](O)[C@@H]2[C@@H]3C(=O)N(C[C@@H]4CCCO4)C(=O)[C@@H]3CC[C@H]12)OCc1ccccc1	0.534
5) O=C(NN=C1C[C@@H](O)[C@@H](O)[C@@H]2[C@@H]3C(=O)N(C[C@@H]4CCCO4)C(=O)[C@@H]3CC[C@@H]12)OCc1ccccc1	0.103

Provide reported composite z-score for each item, in the same order as listed.
1. CCc1cc2c(nc1CC)CCN(CCC(C)=NO[C@H](C)c1cn([C@H](CO)Cc3ccccc3)nn1)C2
2. C#CCCCON=C1C[C@@H](O)[C@@H](O)[C@@H]2[C@@H]3C(=O)N(c4ccc(F)cc4F)C(=O)[C@@H]3CC[C@@H]12
3. C=COC[C@@H]1CN2[C@@H](CC[C@@H](C)[C@@H]2c2ccc(Br)cc2)C(=O)O1

1: 0.867; 2: 0.373; 3: 0.0494

Provide reported composite z-score for each item, in the same order as listed.
1. C#CCCCON=C1C[C@@H](O)[C@@H](O)[C@@H]2[C@@H]3C(=O)N(C(C)(C)C)C(=O)[C@@H]3CC[C@@H]12
2. CC(CCN1CCc2nc(-c3ccccc3)c(-c3ccccc3)cc2C1)=NOC[C@@H](O)COCc1ccco1

0.0601
0.148

Provide reported composite z-score for each item, in the same order as listed.
1. C[C@H]1CC[C@H]2C(=O)OC(CO)CN2[C@@H]1c1ccc(Br)cc1 (stereo not given in full)
2. O=C1[C@H]2[C@H]3[C@H](O)[C@H](O)CC(=NOC[C@@H](O)COCc4ccco4)[C@@H]3CC[C@H]2C(=O)N1C[C@@H]1CCCO1
3. COC(=O)CC=C[C@@H](C)[C@@H](C=NO[C@@H](C)c1cn([C@H](CO)Cc2ccccc2)nn1)NS(=O)(=O)c1ccc(C)cc1
4. COC(=O)[C@H](C)NC(=O)CCC1CC(OC(=O)NCc2ccc3c(c2)OCO3)CC2(CCCC(COC(=O)NCCc3ccccc3OC)O2)O1 (stereo not given in full)
5. C#CCCCON=C1[C@H]2CCn3c(=O)n(-c4ccccc4)c(=O)n3[C@H]2[C@H](O)[C@@H]2O[C@H]12

1. 0.0691
2. 0.63
3. -0.193
4. 0.159
5. 0.37
